biological target: hA2B AR (Homo sapiens, UniProt P29275); construct: expressed in transfected cells; host or cells: CHO cells; assay: Inhibition of NECA stimulated adenylyl cyclase activity (cAMP assay) in CHO cells expressing hA2B receptor; assay type: cell-based; details: CHO; at 10 μM of tested compound, cAMP assay; read-out: hA2BAR percentage of inhibition (I%)
Sequence (P29275 whole entry): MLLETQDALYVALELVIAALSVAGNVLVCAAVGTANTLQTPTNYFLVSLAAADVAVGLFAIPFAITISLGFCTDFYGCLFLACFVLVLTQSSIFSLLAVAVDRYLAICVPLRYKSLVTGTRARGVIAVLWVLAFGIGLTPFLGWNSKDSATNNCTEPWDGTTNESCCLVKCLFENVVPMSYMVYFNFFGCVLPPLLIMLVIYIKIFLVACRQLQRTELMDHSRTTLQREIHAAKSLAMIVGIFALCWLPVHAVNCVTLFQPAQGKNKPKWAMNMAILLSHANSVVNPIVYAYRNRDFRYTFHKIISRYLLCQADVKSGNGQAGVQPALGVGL
READOUT TYPE: inhibition at 10 µM (%)
Numbers only; they are read as %.

Study these solved cases before continuing.
Nc1nc(NCC2CCN(Cc3ccccc3)CC2)nc2sc(-c3ccco3)nc12    18
COCCOc1ccc(N2CCN(c3nc(N)c4nc(-c5ccco5)sc4n3)CC2)cc1    7
Nc1nc(N2CCN(CCc3ccccc3)CC2)nc2sc(-c3ccco3)nc12    11
Nc1nc(N2CCN(c3ccccc3)CC2)nc2sc(-c3ccco3)nc12    15
Nc1nc(N2CCN(Cc3ccccc3)CC2)nc2sc(-c3ccco3)nc12    26

Kindly review the next molecule as well.
Nc1nc(NCC2CCN(CCc3ccccc3)CC2)nc2sc(-c3ccco3)nc12 yielded inhibition at 10 µM of 27

---

READOUT TYPE: melting point

Study these solved cases before continuing.
CN(C)CCN1CCN(c2nc(N)c3nc(-c4ccco4)sc3n2)CC1    183 to 186 °C
Nc1nc(N2CCC(Cc3ccccc3)CC2)nc2sc(-c3ccco3)nc12    197 to 199 °C
Nc1nc(NCCN2CCN(Cc3ccccc3)CC2)nc2sc(-c3ccco3)nc12    133 to 135 °C
Nc1nc(NCCN2CCC(Cc3ccccc3)CC2)nc2sc(-c3ccco3)nc12    155 to 157 °C
COc1ccc(CN2CCC(CNc3nc(N)c4nc(-c5ccco5)sc4n3)CC2)cc1    182 to 183 °C

Nc1nc(N2CCN(Cc3ccccc3)CC2)nc2sc(-c3ccco3)nc12 yielded melting point of 181 to 183 °C

Nc1nc(N2CCN(C(=O)c3ccco3)CC2)nc2sc(-c3ccco3)nc12 yielded melting point of 227 to 229 °C

Nc1nc(N2CCN(CCc3ccccc3)CC2)nc2sc(-c3ccco3)nc12 yielded melting point of 203 to 204 °C

---

molecular target: hA2A AR (Homo sapiens); experiment: Competition binding of [3H]ZM241385 to hA2A AR in CHO cell membranes
Sequence (P29274 whole entry): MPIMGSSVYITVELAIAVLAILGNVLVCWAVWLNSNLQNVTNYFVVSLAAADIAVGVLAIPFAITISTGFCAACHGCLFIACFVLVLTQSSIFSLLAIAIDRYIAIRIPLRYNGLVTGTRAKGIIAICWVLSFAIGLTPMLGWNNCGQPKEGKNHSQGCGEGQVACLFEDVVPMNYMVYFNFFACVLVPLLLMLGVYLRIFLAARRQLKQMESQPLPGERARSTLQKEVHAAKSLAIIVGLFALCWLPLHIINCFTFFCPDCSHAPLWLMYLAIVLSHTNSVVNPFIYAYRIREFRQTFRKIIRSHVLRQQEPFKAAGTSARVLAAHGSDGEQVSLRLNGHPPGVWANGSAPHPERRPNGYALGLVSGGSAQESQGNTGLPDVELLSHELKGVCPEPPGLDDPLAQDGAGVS
READOUT TYPE: log10 Ki (log10 of the value in nM)
Record value = log10 of Ki given in nM.

Nc1nc(NCCN2CCC(Cc3ccccc3)CC2)nc2sc(-c3ccco3)nc12    2.27
CN(C)CCN1CCN(c2nc(N)c3nc(-c4ccco4)sc3n2)CC1    1.46
CCOC(=O)c1ccc(N2CCN(CCNc3nc(N)c4nc(-c5ccco5)sc4n3)CC2)cc1    2.42

COCCOc1ccc(N2CCN(CCNc3nc(N)c4nc(-c5ccco5)sc4n3)CC2)cc1 yielded log10 Ki of 1.26

Nc1nc(NCCN2CCN(C(=O)c3ccco3)CC2)nc2sc(-c3ccco3)nc12 yielded log10 Ki of 1.03

---

molecular target: hA2A AR (Homo sapiens); assay: Competition binding of [3H]ZM241385 to hA2A AR in CHO cell membranes
Listed compounds paired with reported Ki

Nc1nc(NCC2CCN(CCc3ccccc3)CC2)nc2sc(-c3ccco3)nc12    0.483 µM
CCOC(=O)c1ccc(CNc2nc(N)c3nc(-c4ccco4)sc3n2)cc1    > 10 µM

Nc1nc(N2CCN(Cc3ccccc3)CC2)nc2sc(-c3ccco3)nc12 yielded Ki of 0.058 µM

COCCOc1ccc(N2CCN(c3nc(N)c4nc(-c5ccco5)sc4n3)CC2)cc1 yielded Ki of 0.326 µM

---

Listed compounds paired with reported Ki
Target: hA3 AR (Homo sapiens)
Sequence (P0DMS8 1-318): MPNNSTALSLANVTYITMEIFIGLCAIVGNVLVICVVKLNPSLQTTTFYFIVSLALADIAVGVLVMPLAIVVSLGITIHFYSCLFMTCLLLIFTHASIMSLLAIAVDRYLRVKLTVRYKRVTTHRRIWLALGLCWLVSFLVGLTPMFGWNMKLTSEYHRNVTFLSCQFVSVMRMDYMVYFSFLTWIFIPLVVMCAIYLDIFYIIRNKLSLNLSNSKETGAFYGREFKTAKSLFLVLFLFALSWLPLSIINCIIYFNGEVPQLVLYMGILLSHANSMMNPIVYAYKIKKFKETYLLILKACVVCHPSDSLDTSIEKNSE
Assay: Competition binding of [125I]AB-MECA to hA3 AR in CHO cell membranes

Study these solved cases before continuing.
Nc1nc(NCCN2CCN(c3ccccc3)CC2)nc2sc(-c3ccco3)nc12    > 10 µM
Nc1nc(NCCN2CCC(Cc3ccccc3)CC2)nc2sc(-c3ccco3)nc12    > 10 µM
Nc1nc(N2CCN(C(=O)c3ccco3)CC2)nc2sc(-c3ccco3)nc12    0.816 µM
COc1ccc(CN2CCC(CNc3nc(N)c4nc(-c5ccco5)sc4n3)CC2)cc1    > 10 µM
Nc1nc(N2CCN(CCc3ccccc3)CC2)nc2sc(-c3ccco3)nc12    0.197 µM
Nc1nc(NCCN2CCN(CCc3ccccc3)CC2)nc2sc(-c3ccco3)nc12    > 10 µM
CN(C)CCN1CCN(c2nc(N)c3nc(-c4ccco4)sc3n2)CC1    > 10 µM
COCCN1CCC(CNc2nc(N)c3nc(-c4ccco4)sc3n2)CC1    > 10 µM

Nc1nc(NCCN2CCN(Cc3ccccc3)CC2)nc2sc(-c3ccco3)nc12 yielded Ki of > 10 µM

---

target: hA3 AR (Homo sapiens); assay: Competition binding of [125I]AB-MECA to hA3 AR in CHO cell membranes; settings: read-out: hA3AR percentage of inhibition (I%)
Rule: inhibition at 10 µM under 20% gives 0 (no), otherwise 1 (yes).

Example entries and their recorded answers appear below.
CN(C)CCN1CCN(c2nc(N)c3nc(-c4ccco4)sc3n2)CC1 [compound 7]    1 (yes)
Nc1nc(NCCN2CCN(CCc3ccccc3)CC2)nc2sc(-c3ccco3)nc12 [compound 13]    1 (yes)
Nc1nc(NCCN2CCN(c3ccccc3)CC2)nc2sc(-c3ccco3)nc12 [compound 11]    0 (no)
Nc1nc(N2CCN(c3ccccc3)CC2)nc2sc(-c3ccco3)nc12 [compound 2]    0 (no)
COc1ccc(CN2CCC(CNc3nc(N)c4nc(-c5ccco5)sc4n3)CC2)cc1 [compound 20]    1 (yes)
Nc1nc(NCCN2CCN(Cc3ccccc3)CC2)nc2sc(-c3ccco3)nc12 [compound 12]    0 (no)
Nc1nc(NCC2CCN(CCc3ccccc3)CC2)nc2sc(-c3ccco3)nc12 [compound 21]    1 (yes)
Nc1nc(N2CCN(CCN3CCCC3)CC2)nc2sc(-c3ccco3)nc12 [compound 8]    1 (yes)

Now take the following compound into account.
Qu. Exam item: decide whether the reported inhibition at 10 µM for CCOC(=O)c1ccc(CNc2nc(N)c3nc(-c4ccco4)sc3n2)cc1 [compound 17] is at least 20%.
Ans. 1 (yes)

---

As a worked illustration, we turn to Ki data collected for UniProt P30542.
Sequence (P30542 whole entry): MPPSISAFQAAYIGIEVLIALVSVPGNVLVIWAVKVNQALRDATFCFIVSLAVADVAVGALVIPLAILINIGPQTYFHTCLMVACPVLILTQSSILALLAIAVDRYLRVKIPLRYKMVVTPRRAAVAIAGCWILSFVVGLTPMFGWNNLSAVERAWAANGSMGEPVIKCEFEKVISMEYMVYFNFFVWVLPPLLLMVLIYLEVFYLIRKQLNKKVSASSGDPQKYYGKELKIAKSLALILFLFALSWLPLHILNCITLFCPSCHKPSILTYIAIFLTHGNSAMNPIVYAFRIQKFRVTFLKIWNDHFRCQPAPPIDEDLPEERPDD
Numbers only; they are read as µM.

Study these solved cases before continuing.
Nc1nc(N2CCN(C(=O)c3ccco3)CC2)nc2sc(-c3ccco3)nc12    2.77
COCCOc1ccc(N2CCN(c3nc(N)c4nc(-c5ccco5)sc4n3)CC2)cc1    2.35
Nc1nc(N2CCN(CCN3CCCC3)CC2)nc2sc(-c3ccco3)nc12    0.638

Kindly review the next molecule as well.
So the reported Ki for Nc1nc(NCC2CCN(Cc3ccccc3)CC2)nc2sc(-c3ccco3)nc12 , on UniProt P30542, turned out to be 0.365

---

Listed compounds paired with reported inhibition at 10 µM
Target: hA3 AR (Homo sapiens)
Sequence (P0DMS8 1-318): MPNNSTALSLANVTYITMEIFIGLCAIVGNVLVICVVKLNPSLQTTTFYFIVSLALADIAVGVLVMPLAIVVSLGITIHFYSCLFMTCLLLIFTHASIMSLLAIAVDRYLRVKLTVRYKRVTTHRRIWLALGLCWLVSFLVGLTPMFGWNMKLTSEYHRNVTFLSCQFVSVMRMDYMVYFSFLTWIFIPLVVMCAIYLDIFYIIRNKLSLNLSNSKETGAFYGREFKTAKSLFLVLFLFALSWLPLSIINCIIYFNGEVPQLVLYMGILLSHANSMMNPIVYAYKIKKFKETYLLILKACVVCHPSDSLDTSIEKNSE
Assay: Competition binding of [125I]AB-MECA to hA3 AR in CHO cell membranes
Conditions: read-out: hA3AR percentage of inhibition (I%)
Numbers only; they are read as %.

So the reported inhibition at 10 µM for Nc1nc(NCCN2CCN(C(=O)c3ccco3)CC2)nc2sc(-c3ccco3)nc12 , on hA3 AR (Homo sapiens), turned out to be 23

So the reported inhibition at 10 µM for Nc1nc(N2CCC(Cc3ccccc3)CC2)nc2sc(-c3ccco3)nc12 , on hA3 AR (Homo sapiens), turned out to be 8

So the reported inhibition at 10 µM for COCCN1CCC(CNc2nc(N)c3nc(-c4ccco4)sc3n2)CC1 , on hA3 AR (Homo sapiens), turned out to be 28

So the reported inhibition at 10 µM for CCOC(=O)c1ccc(N2CCN(CCNc3nc(N)c4nc(-c5ccco5)sc4n3)CC2)cc1 , on hA3 AR (Homo sapiens), turned out to be 34

So the reported inhibition at 10 µM for Nc1nc(NCC2CCN(Cc3ccccc3)CC2)nc2sc(-c3ccco3)nc12 , on hA3 AR (Homo sapiens), turned out to be 35

So the reported inhibition at 10 µM for Nc1nc(NCCN2CCC(Cc3ccccc3)CC2)nc2sc(-c3ccco3)nc12 , on hA3 AR (Homo sapiens), turned out to be 22
